Data origin, for the record: patent US20210340548A1

# Study System: Cry2 PHR (L348F)-p65AD-NLSx2 fusion construct as released from the TetR (I194T, 1-206)-CIB1 (-NLS)-T2A-Cry2 PHR (L348F)-p65AD-NLSx2 fusion construct
# Sequence (Q96524 other isoform, or with tags, fused parts or gaps L348F I194T L348F L348F I194T L348F): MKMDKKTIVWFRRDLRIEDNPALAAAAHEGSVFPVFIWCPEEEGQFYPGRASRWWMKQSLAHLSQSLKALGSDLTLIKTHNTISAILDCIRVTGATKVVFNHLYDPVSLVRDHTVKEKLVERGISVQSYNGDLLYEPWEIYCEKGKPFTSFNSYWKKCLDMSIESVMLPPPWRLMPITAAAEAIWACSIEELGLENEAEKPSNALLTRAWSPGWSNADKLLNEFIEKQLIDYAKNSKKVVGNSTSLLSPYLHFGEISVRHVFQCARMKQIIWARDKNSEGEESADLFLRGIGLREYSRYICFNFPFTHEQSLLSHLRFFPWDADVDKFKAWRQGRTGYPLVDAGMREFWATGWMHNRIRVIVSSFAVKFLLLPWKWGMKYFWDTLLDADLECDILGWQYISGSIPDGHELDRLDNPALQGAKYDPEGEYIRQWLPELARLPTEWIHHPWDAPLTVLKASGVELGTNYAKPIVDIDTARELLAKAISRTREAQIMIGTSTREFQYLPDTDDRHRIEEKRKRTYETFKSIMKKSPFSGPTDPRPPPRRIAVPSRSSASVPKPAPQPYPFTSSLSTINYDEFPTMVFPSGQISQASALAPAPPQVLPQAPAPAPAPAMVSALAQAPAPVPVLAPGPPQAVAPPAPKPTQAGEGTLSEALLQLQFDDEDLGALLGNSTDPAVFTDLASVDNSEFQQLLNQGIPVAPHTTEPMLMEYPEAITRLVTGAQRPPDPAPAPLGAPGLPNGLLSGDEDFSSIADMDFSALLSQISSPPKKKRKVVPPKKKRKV
# Assay Overview: cell-based or functional assay
Attribute Measured: Ub-ELuc luciferase, Dark, Dox 0 ng/mL (relative)
Give bare numbers, in relative.

Observe how each entry below is paired with its result.
TetR (I194T, 1-206)-CIB1 (-NLS) fusion construct as released from the TetR (I194T, 1-206)-CIB1 (-NLS)-T2A-Cry2 PHR (L348F)-p65AD-NLSx2 fusion construct (protein, part only, residual T2A residues at C-terminus) MARLDKSKVINSALELLNEVGIEGLTTRKLAQKLGVEQPTLYWHVKNKRALLDALAIEMLDRHHTHFCPLEGESWQDFLRNNAKSFRCALLSHRDGAKVHLGTRPTEKQYETLENQLAFLCQQGFSLENALYALSAVGHFTLGCVLEDQEHQVAKEERETPTTDSMPPLLRQAIELFDHQGAEPAFLFGLELITCGLEKQLKCESGSPKKKHMEFNGAIGGDLLLNFPDMSVLERQRAHLKYLNPTFDSPLAGFFADSSMITGGEMDSYLSTAGLNLPMMYGETTVEGDSRLSISPETTLGTGNFKAAKFDTETKDCNEAAKKMTMNRDDLVEEGEEEKSKITEQNNGSTKSIKKMKHKAKKEENNFSNDSSKVTKELEKTDYI :: 4
rTetR (I194T, V10 mutation, 1-206)-CIB1 (-NLS) from the T2A construct (protein, part only; not given: Leftover T2A residues, part only) chain, part: MARLDKSKVINSALELLNGVGIEGLTTRKLAQKLGVEQPTLYWHVKNKRALLDALPIEMLDRHHTHSCPLEGESWQDFLRNNAKSYRCALLSHRDGAKVHLGTRPTEKQYETLENQLAFLCQQGFSLENALYALSAVGHFTLGCVLEEQEHQVAKEERETPTTDSMPPLLKQAIELFDRQGAEPAFLFGLELITCGLEKQLKCESGSPKKKHMEFNGAIGGDLLLNFPDMSVLERQRAHLKYLNPTFDSPLAGFFADSSMITGGEMDSYLSTAGLNLPMMYGETTVEGDSRLSISPETTLGTGNFKAAKFDTETKDCNEAAKKMTMNRDDLVEEGEEEKSKITEQNNGSTKSIKKMKHKAKKEENNFSNDSSKVTKELEKTDYI :: 0.2

Could you now look at the following binder, please?
# binder rTetR (I194T, V16 mutation, 1-206)-CIB1 (-NLS) from the T2A construct (protein, part only; not given: Leftover T2A residues, part only) chain, part: MARLDKSKIINSALELLNGVGIEGLTTRKLAQKLGVEQPTLYWHVKNKRALLDALPIEMLDRHHTHSCPLEGESWQDFLRNNAKSYRCALLSHRDGAKVHLGTRPTEKQYETLENQLAFLCQQGFSLENALYALSAVGHFTLGCVLEEQEHQVAKEERETPTTDSMPPLLKQAIELFDRQGAEPAFLFGLELITCGLEKQLKCESGSPKKKHMEFNGAIGGDLLLNFPDMSVLERQRAHLKYLNPTFDSPLAGFFADSSMITGGEMDSYLSTAGLNLPMMYGETTVEGDSRLSISPETTLGTGNFKAAKFDTETKDCNEAAKKMTMNRDDLVEEGEEEKSKITEQNNGSTKSIKKMKHKAKKEENNFSNDSSKVTKELEKTDYI ; its Ub-ELuc luciferase, Dark, Dox 0 ng/mL = 0.2
